Listed below: Percent Effect values for each entry.
target: Tyrosyl-tRNA synthetase, putative (Trypanosoma cruzi (strain CL Brener)); assay: Trypanosoma cruzi tyrosyl tRNA synthetase (TcYRS) _High Tyrosine SOP; type: functional; set-up: scale not given: in the data most compounds retested in dose-response had high values; conditions: 30 µM
I only need the number, in %, no unit after it.

Record excerpt, results attached:
# compound, obs value
rows = [
    ("N#CC1CCCN(c2nc(-c3ccccc3)nc3c2CCNCC3)C1 (centres undefined)", 4.17),
    ("COc1c(CNCCNC(=O)c2ccco2)c(C)nn1C", 3.96),
    ("O=C(CCc1cscn1)N1CCCC(c2ccn[nH]2)C1 (centres undefined)", 2.91),
]

Log: Tyrosyl-tRNA synthetase, putative (Trypanosoma cruzi (strain CL Brener)), compound O=C([C@@H]1C[C@H]2[C@H](CCN2Cc2nccs2)O1)N1CCOCC1 , Percent Effect = 10.9

Log: Tyrosyl-tRNA synthetase, putative (Trypanosoma cruzi (strain CL Brener)), compound CS(=O)(=O)N1CCC(O)(Cn2c(C3CC3)nc3ccccc3c2=O)CC1 , Percent Effect = -1.07

Log: Tyrosyl-tRNA synthetase, putative (Trypanosoma cruzi (strain CL Brener)), compound O=C1[C@H]2CN(Cc3nccs3)C[C@H]2CN1c1ccsc1 , Percent Effect = -1.08

Log: Tyrosyl-tRNA synthetase, putative (Trypanosoma cruzi (strain CL Brener)), compound Cc1ccc(N2CCCC(NCc3ccsc3)C2)nn1 (centres undefined) , Percent Effect = 4.43

* * *

target: AMP-activated protein kinase, AMPK (Homo sapiens) (UniProt P54646+O43741+P54619+Q9UGJ0+Q9Y478+Q13131+Q9UGI9); test: AMP-dependent Kinase enzyme assay. An in vitro enzyme assay that detects ADP turnover that is directly proportional to AMPK activity. This uses naive AMPK that is activated during the assay with MK-8722; format: functional; parameters: scale not given: direction of the effect not stated beside the values; conditions: 30 µM
Listed below: Percent Effect values for each entry.
I only need the number, in %, no unit after it.

Record excerpt, results attached:
# compound, readout unit, Percent Effect
data = [
    ("N#Cc1cccc(S(=O)(=O)NC(=O)COC2CCCC2)c1", "%", -4.75),
    ("CCN(C)c1ncnc2c1CCN(C(=O)N1CCCC1)CC2", "%", -0.0235),
    ("CC(C)Oc1ncccc1CNC(=O)N1CCC1c1ccccc1 (stereo unspecified)", "%", -8.45),
    ("CCc1noc(C2CCCCN2C(=O)c2ccoc2C)n1 (stereo unspecified)", "%", -0.569),
    ("O=C(C1CCCC1)N1CCN(Cc2nc(-c3ccco3)no2)CC1", "%", -5.37),
    ("CCN1CC2(CCNCC2)COc2ccccc2S1(=O)=O", "%", 7.12),
    ("Cc1cc(C[C@@H]2COC[C@H]2NCc2ccc(Br)s2)on1", "%", 9.27),
    ("CCc1nc(C)c([C@H]2CN(C)C[C@@H]2C(=O)Nc2ccc(OC)cc2)[nH]1", "%", -1.46),
    ("O=C(c1ccccc1N1CCOCC1)N1CCCC(n2cccn2)C1 (stereo unspecified)", "%", -10.8),
    ("O=C(NCc1ccccn1)[C@@H]1COC[C@H]2CN(C3CCOCC3)C[C@H]21", "%", 9.79),
]

// below: Percent Effect requested for another compound
Record COCCC(=O)N1CCC(c2noc3nc(C)cc(C(F)(F)F)c23)CC1 . Reported Percent Effect: 7.83
